This listing pairs molecules with measured CLH.
ASSAY REMARKS: Metabolic stability in rat liver microsomes assessed as intrinsic clerance at 1 uM and measured upto 60 mins by HPLC-MS/MS analysis
Assay type: ADME, Microsome
CONDITION SUMMARY: microsomes, 1 h, 1 µM
PROPERTY LABEL: CLH (µL/min/mg)

* COc1ccc([C@H](Cc2c(Cl)c[n+]([O-])cc2Cl)OC(=O)c2ccc(CNC(CO)(C(=O)O[C@H]3CN4CCC3CC4)c3ccccc3)s2)cc1OC (stereo in doubt; 3s) | 189
* COc1ccc([C@H](Cc2c(Cl)c[n+]([O-])cc2Cl)OC(=O)c2ccc(CNC(C)(C(=O)O[C@H]3CN4CCC3CC4)c3ccccc3)s2)cc1OC (stereo in doubt; 1s) | 48
* COc1ccc([C@H](Cc2c(Cl)c[n+]([O-])cc2Cl)OC(=O)c2ccc(CNC(C)(C(=O)O[C@H]3CN4CCC3CC4)c3ccccc3)s2)cc1OC (stereo in doubt; 1f) | 481
* COc1ccc([C@H](Cc2c(Cl)c[n+]([O-])cc2Cl)OC(=O)c2ccc(CNC(CO)(C(=O)O[C@H]3CN4CCC3CC4)c3ccccc3)s2)cc1OC (stereo in doubt; 3f) | 32
